- assay-remarks: Aqueous solubility, shake-flask method
- Assay type: physicochemical
- experimental-setup: pH 7.0 buffer, aqueous buffer, thermodynamic from solid; shaking flask, buffered media at pH 7.0, mean of three
quantity-name: solubility at 72 h (µg/mL)

INSERT INTO assay_data (compound, number) VALUES
  ('Cc1cc2nc(/C=C/c3cccnc3)sc2cc1C [MI181, reference compound]', 5.6);

###

- Tested on: HT-29 cells
- assay-remarks: Cell growth inhibition assay (MTT)
- Format: cell-based, human
- experimental-setup: 72 h after drug exposure
pIC50: −log10 of the molar value.
quantity-name: pIC50

INSERT INTO results (sample_smiles, quantity_name, number) VALUES
  ('CCNC(=O)N(Cc1cccnc1)c1nc2ccc(OC)cc2s1', 'pIC50', 6.68);

###

- Test system: GL261 cells
- assay-remarks: Cell growth inhibition assay (MTT)
- Type: cell-based, murine
- experimental-setup: Mus musculus, GL261, 72 h after drug exposure
This listing pairs compounds with measured IC50.
quantity-name: IC50 (µM)

INSERT INTO assay_data (compound, output_unit, value_qualifier, number) VALUES
  ('CCNC(=O)N(Cc1[nH]cnc1C)c1nc2ccc(OC)cc2s1 [Compound 10]', 'µM', '>', 10),
  ('CCNC(=O)N(Cc1ccccn1)c1nc2ccc(OC)cc2s1 [Compound 7]', 'µM', '=', 0.096),
  ('COc1ccc2nc(N(Cc3ccncc3)C(C)=O)sc2c1 [Compound 21]', 'µM', '=', 1.59),
  ('COc1ccc2nc(N(C=O)Cc3[nH]cnc3C)sc2c1 [Compound 16]', 'µM', '>', 10),
  ('COc1ccc2nc(NCc3ccncc3)sc2c1 [Compound 3]', 'µM', '=', 2.03),
  ('COc1ccc2nc(N(C=O)Cc3ccccn3)sc2c1 [Compound 13]', 'µM', '=', 0.195),
  ('COc1ccc2nc(N(Cc3ccccc3)C(C)=O)sc2c1 [Compound 23]', 'µM', '=', 6.33),
  ('COc1ccc2nc(N(Cc3ccccn3)C(C)=O)sc2c1 [Compound 19]', 'µM', '=', 1.38),
  ('COc1ccc2nc(N(C=O)Cc3ccc4ccccc4c3)sc2c1 [Compound 18]', 'µM', '>', 10),
  ('COc1ccc2nc(NCc3cccnc3)sc2c1 [Compound 2]', 'µM', '=', 1.91);

###

- System: tumor cell lines
- assay-remarks: Cell growth inhibition assay (MTT), summary statements over several cell lines
- Type: cell-based
- experimental-setup: the rest of the tumor cell lines (other than HeLa, HepG2, MCF7, U87MG); read-out: antiproliferative IC50
quantity-name: IC50

INSERT INTO results (sample_smiles, tested_target, quantity_name, result) VALUES
  ('COc1ccc2nc(NCc3cccnc3)sc2c1', 'tumor cell lines', 'IC50', '2 to 3 µM'),
  ('COc1ccc2nc(NCc3ccccn3)sc2c1', 'tumor cell lines', 'IC50', '2 to 3 µM'),
  ('COc1ccc2nc(NCc3ccncc3)sc2c1', 'tumor cell lines', 'IC50', '2 to 3 µM');

###

- Test system: tumor cell lines
- assay-remarks: Cell growth inhibition assay (MTT), summary statements over several cell lines
- Type: cell-based
- experimental-setup: the rest of the cell lines (other than glioblastoma U87MG and GL261); read-out: antiproliferative IC50
pIC50: −log10 of the molar value.
quantity-name: pIC50

INSERT INTO measurements (sample_smiles, result) VALUES
  ('CCNC(=O)N(Cc1ccccn1)c1nc2ccc(OC)cc2s1', '6.52 to 7.00');
